# assay.comment: background-corrected fluorescence of 3'-dye-labeled ssDNA relative to brightest sequence (3'-GCGCG) (fraction); higher = brighter dye fluorescence (less quenching)
# condition: dye: Cy3 (3' terminal)
assay.metric: background-corrected fluorescence

Entry TTTTTTCAGCATGATGATGATTTTTTTTTTTTTTTGTCCC [CCCTG] has what background-corrected fluorescence? 0.38

Entry TTTTTGCAGCATGCTGATGATTTTTTTTTTTTTTTTTACC [CCATT] has what background-corrected fluorescence? 0.388

Entry TTTTTGCATGCTGATGATGCTTTTTTTTTTTTTTTTACCA [ACCAT] has what background-corrected fluorescence? 0.43

Entry TTTTTGCAGCAGCAGCATGATTTTTTTTTTTTTTTTTTTC [CTTTT] has what background-corrected fluorescence? 0.373

Entry TTTTTTGCTGCTGCTGCTCATTTTTTTTTTTTTTTAAAAG [GAAAA] has what background-corrected fluorescence? 0.576

Entry TTTTTTGATGATGAGCATCATTTTTTTTTTTTTTTCCCTG [GTCCC] has what background-corrected fluorescence? 0.528

Entry TTTTTTGCGCATGCTGATGATTTTTTTTTTTTTTTATACC [CCATA] has what background-corrected fluorescence? 0.411

Entry TTTTTTGCTGCTGATGAGCATTTTTTTTTTTTTTTAACCT [TCCAA] has what background-corrected fluorescence? 0.459

Entry TTTTTTGCTGAGCATCATGCTTTTTTTTTTTTTTTACTGA [AGTCA] has what background-corrected fluorescence? 0.654

Entry TTTTTTGAGCATCAGCATGCTTTTTTTTTTTTTTTCTGTA [ATGTC] has what background-corrected fluorescence? 0.571

Entry TTTTTTCAGCAGCATGATCATTTTTTTTTTTTTTTGTTCG [GCTTG] has what background-corrected fluorescence? 0.551

Entry TTTTTTGCTCATGCTGCTGATTTTTTTTTTTTTTTAGAAC [CAAGA] has what background-corrected fluorescence? 0.485

Entry TTTTTGCAGCATGAGCATGATTTTTTTTTTTTTTTTTCTC [CTCTT] has what background-corrected fluorescence? 0.389

Entry TTTTTTCAGCATGCTCATGATTTTTTTTTTTTTTTGTAGC [CGATG] has what background-corrected fluorescence? 0.535

Entry TTTTTTGCTGCTGATGATGCTTTTTTTTTTTTTTTAACCA [ACCAA] has what background-corrected fluorescence? 0.492

Entry TTTTTTGCTGATGATGATGATTTTTTTTTTTTTTTACCCC [CCCCA] has what background-corrected fluorescence? 0.358

Entry TTTTTGCAGCATGCTGAGCATTTTTTTTTTTTTTTTTACT [TCATT] has what background-corrected fluorescence? 0.49

Entry TTTTTTCAGCATGCTGCGCATTTTTTTTTTTTTTTGTAAT [TAATG] has what background-corrected fluorescence? 0.531

Entry TTTTTTCAGCATGCGCATGATTTTTTTTTTTTTTTGTATC [CTATG] has what background-corrected fluorescence? 0.417

Entry TTTTTTGAGCATGAGCATGCTTTTTTTTTTTTTTTCTCTA [ATCTC] has what background-corrected fluorescence? 0.483

Entry TTTTTTCATGCTGATGCTGCTTTTTTTTTTTTTTTGACAA [AACAG] has what background-corrected fluorescence? 0.537

Entry TTTTTTGATGATCAGCATGATTTTTTTTTTTTTTTCCGTC [CTGCC] has what background-corrected fluorescence? 0.442

Entry TTTTTTCATCATGATCATGATTTTTTTTTTTTTTTGGCGC [CGCGG] has what background-corrected fluorescence? 0.627

Entry TTTTTGCAGCATCATCATGATTTTTTTTTTTTTTTTTGGC [CGGTT] has what background-corrected fluorescence? 0.556

Entry TTTTTTCATGCTCATGAGCATTTTTTTTTTTTTTTGAGCT [TCGAG] has what background-corrected fluorescence? 0.559

Entry TTTTTGCAGCATCATGATGATTTTTTTTTTTTTTTTTGCC [CCGTT] has what background-corrected fluorescence? 0.41

Entry TTTTTTGATCATCATGAGCATTTTTTTTTTTTTTTCGGCT has what background-corrected fluorescence? 0.583

Entry TTTTTGCATCATGATGCTGCTTTTTTTTTTTTTTTTGCAA [AACGT] has what background-corrected fluorescence? 0.594

Entry TTTTTGCATGATGCTGCTCATTTTTTTTTTTTTTTTCAAG [GAACT] has what background-corrected fluorescence? 0.515

Entry TTTTTTCATGCTCATGCGCATTTTTTTTTTTTTTTGAGAT [TAGAG] has what background-corrected fluorescence? 0.578

Entry TTTTTTGAGCAGCATCATCATTTTTTTTTTTTTTTCTTGG [GGTTC] has what background-corrected fluorescence? 0.631

Entry TTTTTTCAGCATGATGATCATTTTTTTTTTTTTTTGTCCG [GCCTG] has what background-corrected fluorescence? 0.54

Entry TTTTTTCATGCTGATGAGCATTTTTTTTTTTTTTTGACCT [TCCAG] has what background-corrected fluorescence? 0.453

Entry TTTTTTCATGATCATGCTGCTTTTTTTTTTTTTTTGCGAA [AAGCG] has what background-corrected fluorescence? 0.666

Entry TTTTTGCATCATGAGCATCATTTTTTTTTTTTTTTTGCTG [GTCGT] has what background-corrected fluorescence? 0.463

Entry TTTTTTCAGCATCATCATGATTTTTTTTTTTTTTTGTGGC [CGGTG] has what background-corrected fluorescence? 0.572

Entry TTTTTTGCTGCTCATGATGATTTTTTTTTTTTTTTAAGCC [CCGAA] has what background-corrected fluorescence? 0.443

Entry TTTTTTCATCATGATGATCATTTTTTTTTTTTTTTGGCCG [GCCGG] has what background-corrected fluorescence? 0.597

Entry TTTTTGCAGCAGCATCATGCTTTTTTTTTTTTTTTTTTGA [AGTTT] has what background-corrected fluorescence? 0.634

Entry TTTTTTGCGCATGCTGCGCATTTTTTTTTTTTTTTATAAT [TAATA] has what background-corrected fluorescence? 0.567

Entry TTTTTTGATGCTGATGAGCATTTTTTTTTTTTTTTCACCT [TCCAC] has what background-corrected fluorescence? 0.457

Entry TTTTTTCATCATGATGCGCATTTTTTTTTTTTTTTGGCAT [TACGG] has what background-corrected fluorescence? 0.603
